Test target: Gal(b1-4)GlcNAc(b1-6)Gal(b1-4)GlcNAc
Assay info: glycan array binding signal (z-score within array); higher = stronger binding
Experimental conditions: glycan notation: IUPAC condensed, linker removed
This is one part of a sample in which the strongest signals are shown more often than they occur.
For each of the binders below, state its glycan array binding signal (z-score).
Answer field: number only, no words.

Query (binder): Drgal1 (Danio rerio) (protein) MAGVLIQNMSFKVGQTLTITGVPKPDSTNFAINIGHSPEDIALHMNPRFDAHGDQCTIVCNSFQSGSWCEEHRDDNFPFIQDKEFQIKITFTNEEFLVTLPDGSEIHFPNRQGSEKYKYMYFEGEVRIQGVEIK ; field requested: glycan array binding signal (z-score)
0.065

Query (binder): Mannose Binding Protein (Lactobacillus plantarum) (protein) AERSEAALTHVDKDNFLKYFSLNGSATYDAKTGIVTITPNQNNQVGNFSLTSKIDMNKSFTLTGQVNLGSNPNGADGIGFAFHSGNTTDVGNAGGNLGIGGLQDAIGFKLDTWFNSYQAPSSDKNGSEISSTNSNGFGWNGDSANAPYGTFVKTSNQEISTANGSKVQRWWAQDTGESQALSKADIDGNFHDFVVNYDGATRTLTVSYTQASGKVLTWKTTVASSYQAMAMVVSASTGAAKNLQQFKLTSFDFQEAATVNVKYVDTTGHQLAQG ; field requested: glycan array binding signal (z-score)
-0.654

Query (binder): EUL D1A second (Oryza sativa) (protein) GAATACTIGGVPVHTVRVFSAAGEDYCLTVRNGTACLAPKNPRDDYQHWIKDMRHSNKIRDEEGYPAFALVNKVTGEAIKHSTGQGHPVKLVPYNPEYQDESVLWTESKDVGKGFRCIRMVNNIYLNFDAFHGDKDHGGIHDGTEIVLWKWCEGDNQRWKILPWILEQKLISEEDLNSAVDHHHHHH ; field requested: glycan array binding signal (z-score)
-0.144
